Entry source: patent US11352350B2

Assayed System: IRAK4 (Homo sapiens (Human))
Sequence (Q9NWZ3 whole entry): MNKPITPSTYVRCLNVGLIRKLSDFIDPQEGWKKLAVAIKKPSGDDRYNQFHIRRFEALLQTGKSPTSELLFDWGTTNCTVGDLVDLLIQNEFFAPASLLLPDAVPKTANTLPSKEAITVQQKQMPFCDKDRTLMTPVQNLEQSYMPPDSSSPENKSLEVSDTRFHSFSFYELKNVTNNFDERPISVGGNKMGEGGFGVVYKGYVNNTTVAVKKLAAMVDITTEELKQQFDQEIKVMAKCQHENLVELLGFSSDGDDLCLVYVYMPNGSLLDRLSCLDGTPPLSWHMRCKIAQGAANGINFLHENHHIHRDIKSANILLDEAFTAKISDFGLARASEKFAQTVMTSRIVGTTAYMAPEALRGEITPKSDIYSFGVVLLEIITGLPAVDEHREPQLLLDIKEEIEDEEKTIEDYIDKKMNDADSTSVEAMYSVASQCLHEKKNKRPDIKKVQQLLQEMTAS
Run Description: hPBMC IRAK4 degradation flow assay
Format: cell-based
Recorded Conditions: hPBMC monocyte, 20 hrs; read-out: IRAK4 degradation in hPBMC monocyte: DC50
DC50: recorded values

// below: answered molecules
{"Molecule": "O=C1CCC(n2c3cccc(C#CCOC4CCN(C[C@H]5CC[C@H](n6cc(NC(=O)c7cnn8ccc(N9C[C@H]%10C[C@@H]9CO%10)nc78)c(C(F)F)n6)CC5)CC4)c3c3cccnc32)C(=O)N1 (stereo partly shown)", "Assayed System": "IRAK4 (Homo sapiens (Human))", "DC50": "100 to 1000 nM"}
{"Molecule": "Cc1ccc(-c2nn([C@H]3CC[C@H](CN4CCC5(CC4)CN(CCCc4cccc6c4n(C)c(=O)n6C4CCC(=O)NC4=O)C5)CC3)cc2NC(=O)c2cnn3cccnc23)nc1 (stereo partly shown)", "Assayed System": "IRAK4 (Homo sapiens (Human))", "DC50": "10 to 100 nM"}
{"Molecule": "C[C@H]1CN(c2ccn3ncc(C(=O)Nc4cn([C@H]5CC[C@H](CN6CCC(OCC#Cc7cccc8c7n(C)c(=O)n8C7CCC(=O)NC7=O)CC6)CC5)nc4C(F)F)c3n2)C[C@H](C)O1 (stereo partly shown)", "Assayed System": "IRAK4 (Homo sapiens (Human))", "DC50": "< 10 nM"}
{"Molecule": "Cn1c(=O)n(C2CCC(=O)NC2=O)c2cccc(C#CCOC3CCN(C[C@H]4CC[C@H](n5cc(NC(=O)c6cnn7ccc(N8C[C@H]9CC[C@@H](C8)O9)nc67)c(C(F)F)n5)CC4)CC3)c21 (stereo partly shown)", "Assayed System": "IRAK4 (Homo sapiens (Human))", "DC50": "< 10 nM"}
{"Molecule": "Cn1c(=O)n(C2CCC(=O)NC2=O)c2cccc(CC[C@@H]3CN(C[C@H]4CC[C@H](C5N=C(NC(=O)c6cnn7ccc(N8CCCOCC8)nc67)C(C(F)F)=N5)CC4)CCO3)c21 (stereo partly shown)", "Assayed System": "IRAK4 (Homo sapiens (Human))", "DC50": "< 10 nM"}

Challenge: I would be grateful if you could share the reported DC50 for C[C@H](C#Cc1cccc2c1N(C)C(=O)C2C1CCC(=O)NC1=O)OC1CCN(C[C@H]2CC[C@H](n3cc(NC(=O)c4cnn5ccc(N6C[C@H]7C[C@@H]6CO7)nc45)c(C(F)F)n3)CC2)CC1 (stereo partly shown) .
Response given: < 10 nM

Challenge: I would be grateful if you could share the reported DC50 for Cn1c(=O)n(C2CCC(=O)NC2=O)c2cccc(C#CCC3CCN(C[C@H]4CC[C@H](n5cc(NC(=O)c6cnn7ccc(N8CCCOCC8)nc67)c(C(F)F)n5)CC4)CC3)c21 (stereo partly shown) .
Response given: < 10 nM

Challenge: I would be grateful if you could share the reported DC50 for C[C@H]1CN(c2ccn3ncc(C(=O)NC4=NC([C@H]5CC[C@H](CN6CCC(CCCc7cccc8c7n(C)c(=O)n8C7CCC(=O)NC7=O)CC6)CC5)N=C4C(F)F)c3n2)C[C@H](C)O1 (stereo partly shown) .
Response given: < 10 nM

Challenge: I would be grateful if you could share the reported DC50 for CN(C[C@H]1CC[C@H](n2cc(NC(=O)c3cnn4ccc(N5C[C@H]6C[C@@H]5CO6)nc34)c(C(F)F)n2)CC1)C1CCN(Cc2cccc3c2n(C)c(=O)n3C2CCC(=O)NC2=O)CC1 (stereo partly shown) .
Response given: < 10 nM

Challenge: I would be grateful if you could share the reported DC50 for CN(C[C@H]1CC[C@H](C2N=C(NC(=O)c3cnn4ccc(N5C[C@H]6C[C@@H]5CO6)nc34)C(C(F)F)=N2)CC1)C1CCC2(CC1)CC(Cc1cccc3c1n(C)c(=O)n3C1CCC(=O)NC1=O)C2 (stereo partly shown) .
Response given: < 10 nM

Challenge: I would be grateful if you could share the reported DC50 for Cn1c(=O)n(C2CCC(=O)NC2=O)c2cccc(CC3CC4(CCN(Cc5ccc(-n6cc(NC(=O)c7cnn8ccc(N9C[C@H]%10C[C@@H]9CO%10)nc78)c(C(F)F)n6)cc5)CC4)C3)c21 (stereo partly shown) .
Response given: < 10 nM

Challenge: I would be grateful if you could share the reported DC50 for Cn1c(=O)n(C2CCC(=O)NC2=O)c2cccc(CCCOC3CCN(C[C@H]4CC[C@H](n5cc(NC(=O)c6cnn7ccc(N8CCOC9(CCC9)C8)nc67)c(C(F)F)n5)CC4)CC3)c21 (stereo partly shown) .
Response given: < 10 nM

Challenge: I would be grateful if you could share the reported DC50 for O=C1CCC(n2c3cccc(CCCN4CC5(CCN(C[C@H]6CC[C@H](n7cc(NC(=O)c8cnn9ccc(N%10C[C@H]%11C[C@@H]%10CO%11)nc89)c(C(F)F)n7)CC6)CC5)C4)c3c3cccnc32)C(=O)N1 (stereo partly shown) .
Response given: 100 to 1000 nM

Challenge: I would be grateful if you could share the reported DC50 for Cn1c(=O)n(C2CCC(=O)NC2=O)c2cccc(CCCC3CCN(C[C@H]4CC[C@H](C5N=C(NC(=O)c6cnn7ccc(N8CCOC9(CCC9)C8)nc67)C(C(F)F)=N5)CC4)CC3)c21 (stereo partly shown) .
Response given: < 10 nM

Challenge: I would be grateful if you could share the reported DC50 for Cn1c(=O)n(C2CCC(=O)NC2=O)c2cccc(CCC3CCN(C[C@H]4CC[C@H](n5cc(NC(=O)c6cnn7ccc(N8C[C@H]9C[C@@H]8CO9)nc67)c(C(F)F)n5)CC4)CC3)c21 (stereo partly shown) .
Response given: < 10 nM

Challenge: I would be grateful if you could share the reported DC50 for Cn1c(=O)n(C2CCC(=O)NC2=O)c2cccc(CN3CCC(OC4CCN(C[C@H]5CC[C@H](n6cc(NC(=O)c7cnn8ccc(N9C[C@H]%10C[C@@H]9CO%10)nc78)c(C(F)F)n6)CC5)CC4)CC3)c21 (stereo partly shown) .
Response given: < 10 nM

Challenge: I would be grateful if you could share the reported DC50 for O=C1CCC(N2C(=O)c3cccc(NCC4CCN(C[C@H]5CC[C@H](n6cc(NC(=O)c7cnn8ccc(N9C[C@H]%10CC9CO%10)nc78)c(C(F)F)n6)CC5)CC4)c3C2=O)C(=O)N1 (stereo partly shown) .
Response given: 100 to 1000 nM

Challenge: I would be grateful if you could share the reported DC50 for Cn1c(=O)n(C2CCC(=O)NC2=O)c2cccc(CCCC3CCN(C[C@H]4CC[C@H](n5cc(NC(=O)c6cnn7ccc(N8CCOC(C)(C)C8)nc67)c(C(F)F)n5)CC4)CC3)c21 (stereo partly shown) .
Response given: < 10 nM

Challenge: I would be grateful if you could share the reported DC50 for CN(CCCO[C@H]1C[C@H](Nc2cccc3c2C(=O)N(C2CCC(=O)NC2=O)C3=O)C1)C[C@H]1CC[C@H](n2cc(NC(=O)c3cnn4ccc(N5C[C@H]6C[C@@H]5CO6)nc34)c(C(F)F)n2)CC1 (stereo partly shown) .
Response given: < 10 nM
